Give measured aptazyme ON/OFF ratio for each item. Keep answers brief.
B1: Pistol ribozyme (parent)
chain: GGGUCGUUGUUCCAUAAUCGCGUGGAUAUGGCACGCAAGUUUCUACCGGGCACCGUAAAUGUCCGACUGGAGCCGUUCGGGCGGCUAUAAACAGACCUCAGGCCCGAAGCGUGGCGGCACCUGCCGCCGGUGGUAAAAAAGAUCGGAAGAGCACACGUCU

Variants of: B1
Assay: aptazyme ON/OFF ratio, guanine; higher = stronger switching; co-transcriptional cleavage with and without guanine
Kindly provide the number alone.

Request: In one line, give reported aptazyme ON/OFF ratio of the entry U7G U8G G9C U10G U11G C12A .
Response: 1.11

Request: In one line, give reported aptazyme ON/OFF ratio of the entry U7A U8G G9C U10A U11G C12U C13G .
Response: 1.26

Request: In one line, give reported aptazyme ON/OFF ratio of the entry U7A G9A U10A C12U .
Response: 1.21

Request: In one line, give reported aptazyme ON/OFF ratio of the entry U7C U8A G9A U10G C12U .
Response: 1.29

Request: In one line, give reported aptazyme ON/OFF ratio of the entry U7G G9A U11C C12A C13U .
Response: 1.26

Request: In one line, give reported aptazyme ON/OFF ratio of the entry U7A U8G U10C U11A C12G C13A .
Response: 1.22

Request: In one line, give reported aptazyme ON/OFF ratio of the entry U8G G9C U11G C12A C13G .
Response: 1.05

Request: In one line, give reported aptazyme ON/OFF ratio of the entry U7A U8G G9U U11C C12A C13G .
Response: 1.12

Request: In one line, give reported aptazyme ON/OFF ratio of the entry U7A G9A U10A U11A C12U C13A .
Response: 1.19

Request: In one line, give reported aptazyme ON/OFF ratio of the entry U7C U8C G9C U10C C12U C13U .
Response: 1.09

Request: In one line, give reported aptazyme ON/OFF ratio of the entry U7A U8G U10G C12G .
Response: 1.21

Request: In one line, give reported aptazyme ON/OFF ratio of the entry U7C U8C G9U U11C C12A C13A .
Response: 1.06

Request: In one line, give reported aptazyme ON/OFF ratio of the entry U8C G9U U11C C12U .
Response: 1.09

Request: In one line, give reported aptazyme ON/OFF ratio of the entry U7C U8G G9A U10C C12U C13U .
Response: 1.1

Request: In one line, give reported aptazyme ON/OFF ratio of the entry U7C U8A G9U U10A U11A C12U C13U .
Response: 1.36

Request: In one line, give reported aptazyme ON/OFF ratio of the entry U7A G9A U10C U11C C12U .
Response: 1.03

Request: In one line, give reported aptazyme ON/OFF ratio of the entry U8C G9C U10C U11A C12G .
Response: 1.01

Request: In one line, give reported aptazyme ON/OFF ratio of the entry U7A G9U U11G .
Response: 1.36

Request: In one line, give reported aptazyme ON/OFF ratio of the entry U7A G9U U11C C12A C13G .
Response: 1.16

Request: In one line, give reported aptazyme ON/OFF ratio of the entry U7C U8G G9A U10A C12A C13G .
Response: 1.1

Request: In one line, give reported aptazyme ON/OFF ratio of the entry U8A G9U U10C U11C C13A .
Response: 1

Request: In one line, give reported aptazyme ON/OFF ratio of the entry U7A U8G G9C U10G U11A C12G C13A .
Response: 1.33

Request: In one line, give reported aptazyme ON/OFF ratio of the entry U7G U8C U10G U11G C12U C13A .
Response: 1.26

Request: In one line, give reported aptazyme ON/OFF ratio of the entry U7C U8G G9U U10C U11G C12A C13U .
Response: 1.22

Request: In one line, give reported aptazyme ON/OFF ratio of the entry U7C U8C G9A U10A U11G C12A C13G .
Response: 1.09

Request: In one line, give reported aptazyme ON/OFF ratio of the entry G9A U10A U11A C12U C13A .
Response: 1.3

Request: In one line, give reported aptazyme ON/OFF ratio of the entry U7A U8G U10C U11A C12U .
Response: 1.27

Request: In one line, give reported aptazyme ON/OFF ratio of the entry U7C U8G G9C U10G U11A C12U C13A .
Response: 1.38

Request: In one line, give reported aptazyme ON/OFF ratio of the entry U7G U10G U11G C12G C13A .
Response: 1.1

Request: In one line, give reported aptazyme ON/OFF ratio of the entry U7C U8A G9U U10A U11C C13A .
Response: 1.07

All values here come from the RNAGym collection of RNA variant scans (doi:10.1021/acssynbio.7b00057).
